Measured values drawn from patent US9522890B2 for this set.

Target: human recombinant prostanoid FP receptor (Homo sapiens)
Construct: expressed in transfected cells
Sequence (P43088 whole entry): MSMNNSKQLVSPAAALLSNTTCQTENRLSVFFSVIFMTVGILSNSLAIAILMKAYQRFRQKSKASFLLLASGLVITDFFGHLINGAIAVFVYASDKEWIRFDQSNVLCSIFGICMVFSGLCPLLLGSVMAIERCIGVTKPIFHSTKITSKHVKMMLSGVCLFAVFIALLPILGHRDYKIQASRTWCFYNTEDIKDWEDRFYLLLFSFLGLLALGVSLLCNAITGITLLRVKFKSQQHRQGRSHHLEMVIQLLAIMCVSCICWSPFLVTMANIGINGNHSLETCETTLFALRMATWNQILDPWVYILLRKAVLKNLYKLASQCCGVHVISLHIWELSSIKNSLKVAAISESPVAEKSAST
Experiment: FLIPR Ca2+ signaling PG antagonist assay, FP receptor stable cell line
Assay type: cell-based
Details: HEK-293 EBNA cells, standard agonist 17-phenyl-PGF2α
metric: Kb (µM)

[
  {
    "smiles entry": "CCC(CC)COc1ccc(Br)cc1Cn1nc(C(=O)O)cc1C",
    "Kb / µM": 0.035
  }
]

1 = Cc1cc(C(=O)O)nn1Cc1cc(Br)ccc1OCC1(C(F)(F)F)CCC1
2 = Cc1cc(C(=O)O)nn1Cc1cc(Br)ccc1OCC1CCC1
3 = Cc1cc(C(=O)O)nn1Cc1cc(Br)ccc1OCC1CCCC1
4 = Cc1cc(C(=O)O)nn1Cc1cc(C(F)(F)F)ccc1OCC1CCCC1
Problem: Hey, quick one: sort these by Kb, largest value first please. In plain terms: list the labels in the order you were asked to.
Result: 4, 1, 3, 2

====

Molecular target: human recombinant prostanoid FP receptor (Homo sapiens)
Construct: expressed in transfected cells
Assay: FLIPR Ca2+ signaling PG antagonist assay, FP receptor stable cell line
Type: cell-based
Conditions: HEK-293 EBNA cells, standard agonist 17-phenyl-PGF2α
metric: Kb (nM)

[
  {
    "smiles entry": "CCC(C)(CC)COc1ccc(Br)cc1Cn1nc(C(=O)O)cc1C",
    "units of measure": "nM",
    "Kb": 80
  },
  {
    "smiles entry": "Cc1cc(C(=O)O)nn1Cc1cc(Cl)ccc1OCC1CCCC1",
    "units of measure": "nM",
    "Kb": 150
  }
]

I = COc1ccc(COc2ccc(Cl)cc2Cn2nc(C(=O)NS(=O)(=O)c3ccccc3)cc2C)cc1
II = Cc1cc(C(=O)NS(=O)(=O)c2ccccc2)nn1Cc1cc(Cl)ccc1OCc1ccc(Cl)cc1
Problem: Between item I and item II , which reported Kb is smaller? Reply briefly: the label of your chosen item.
Result: I

====

Target: human recombinant prostanoid EP4 receptor (Homo sapiens, UniProt P35408)
Construct: expressed in transfected cells; co-transfected with chimeric Gqs-HA
Sequence (P35408 whole entry): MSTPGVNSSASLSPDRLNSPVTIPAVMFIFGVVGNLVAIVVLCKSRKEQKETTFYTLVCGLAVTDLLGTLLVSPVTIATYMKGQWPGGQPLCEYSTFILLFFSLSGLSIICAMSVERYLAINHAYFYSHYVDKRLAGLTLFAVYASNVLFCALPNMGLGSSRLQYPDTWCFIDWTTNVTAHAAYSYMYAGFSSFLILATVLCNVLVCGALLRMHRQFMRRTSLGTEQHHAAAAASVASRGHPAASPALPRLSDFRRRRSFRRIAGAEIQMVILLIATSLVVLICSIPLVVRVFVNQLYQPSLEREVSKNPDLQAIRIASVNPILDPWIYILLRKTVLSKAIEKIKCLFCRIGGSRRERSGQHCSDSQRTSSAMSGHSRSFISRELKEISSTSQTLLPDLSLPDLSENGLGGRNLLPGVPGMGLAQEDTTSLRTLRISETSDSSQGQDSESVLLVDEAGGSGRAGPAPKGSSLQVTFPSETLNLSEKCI
Test: FLIPR Ca2+ signaling PG antagonist assay, EP4 receptor stable cell line
Format: cell-based
Conditions: HEK-293 EBNA cells with chimeric Gqs, standard agonist PGE2
Procedure: The above compounds were tested for PG antagonist activity as follows using human recombinant prostanoid receptor (DP1, EP1-4, FP, IP and TP) stable cell lines: […] Ca^2+ signaling studies were performed using a FLIPR TETRA system (Molecular Devices, Sunnyvale, Calif., USA) in the 384-format. […] Cells were excited with LED (light emitting diode) excitation at 470-495 nm and emission was measured through an emission filter at 515-575 nm. Assay plates were read for 3.5 minutes using the FLIPR^TETRA. […]
metric: Kb (nM)

Use these answered entries as a reference point.
[
  {
    "compound": "CCC(CC)COc1ccc(Br)cc1Cn1nc(C(=O)O)cc1C [Example 6]",
    "Kb / nM": 800
  },
  {
    "compound": "Cc1cc(C(=O)O)nn1Cc1cc(Br)ccc1OCC1CCCC1 [Example 2]",
    "Kb / nM": 400
  },
  {
    "compound": "Cc1cc(C(=O)O)nn1Cc1cc(C(F)(F)F)ccc1OCC1CCCC1 [Example 3]",
    "Kb / nM": 700
  },
  {
    "compound": "Cc1cc(C(=O)O)nn1Cc1cc(Br)ccc1OCC1(C(F)(F)F)CCC1 [Example 9]",
    "Kb / nM": 600
  },
  {
    "compound": "Cc1cc(C(=O)NS(=O)(=O)c2ccccc2)nn1Cc1cc(Cl)ccc1OCc1ccc(Cl)cc1 [Example 5]",
    "Kb / nM": 75
  },
  {
    "compound": "Cc1cc(C(=O)O)nn1Cc1cc(Br)ccc1OCC1CCC1 [Example 8]",
    "Kb / nM": 700
  }
]

I = Cc1cc(C(=O)O)nn1Cc1cc(Cl)ccc1OCC1CCCC1 [Example 1]
II = CCC(C)(CC)COc1ccc(Br)cc1Cn1nc(C(=O)O)cc1C [Example 7]
Problem: Pick one: I or II . Which one has the lower reported Kb? Pick one and reply with its label.
Result: I
(I: 800 nM, II: 2070 nM)

====

Target: human recombinant prostanoid EP3 receptor (Homo sapiens, UniProt P43115)
Construct: expressed in transfected cells; co-transfected with chimeric Gqi-HA
Sequence (P43115 whole entry): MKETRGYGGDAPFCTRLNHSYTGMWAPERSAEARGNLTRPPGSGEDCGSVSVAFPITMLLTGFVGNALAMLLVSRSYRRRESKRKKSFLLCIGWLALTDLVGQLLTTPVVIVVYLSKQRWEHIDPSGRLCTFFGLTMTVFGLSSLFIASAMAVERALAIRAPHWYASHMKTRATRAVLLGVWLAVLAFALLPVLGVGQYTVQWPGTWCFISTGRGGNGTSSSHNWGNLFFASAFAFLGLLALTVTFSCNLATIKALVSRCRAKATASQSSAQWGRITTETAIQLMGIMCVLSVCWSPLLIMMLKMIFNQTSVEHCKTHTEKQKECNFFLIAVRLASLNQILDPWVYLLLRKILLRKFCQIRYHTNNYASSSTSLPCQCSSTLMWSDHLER
Experiment: FLIPR Ca2+ signaling PG antagonist assay, EP3 receptor stable cell line
Assay type: cell-based
Conditions: HEK-293 EBNA cells with chimeric Gqi, standard agonist PGE2
metric: Kb (µM)

[
  {
    "compound": "Cc1cc(C(=O)O)nn1Cc1cc(Br)ccc1OCC1(C(F)(F)F)CCC1 [Example 9]",
    "metric": "Kb",
    "reading": 2.6
  }
]

A = Cc1cc(C(=O)NS(=O)(=O)c2ccccc2)nn1Cc1cc(Cl)ccc1OCc1ccc(Cl)cc1 [Example 5]
B = Cc1cc(C(=O)O)nn1Cc1cc(Br)ccc1OCC1CCC1 [Example 8]
C = COc1ccc(COc2ccc(Cl)cc2Cn2nc(C(=O)NS(=O)(=O)c3ccccc3)cc2C)cc1 [Example 4]
Problem: Write the entries in order, lowest recorded Kb first. Returns: the labels arranged in the requested order.
Result: A, C, B
(A: 1.5 µM, C: 2.5 µM, B: 4.1 µM)

====

Target: human recombinant prostanoid DP1 receptor (Homo sapiens, UniProt Q13258)
Construct: expressed in transfected cells; co-transfected with chimeric Gqs-HA
Sequence (Q13258 whole entry): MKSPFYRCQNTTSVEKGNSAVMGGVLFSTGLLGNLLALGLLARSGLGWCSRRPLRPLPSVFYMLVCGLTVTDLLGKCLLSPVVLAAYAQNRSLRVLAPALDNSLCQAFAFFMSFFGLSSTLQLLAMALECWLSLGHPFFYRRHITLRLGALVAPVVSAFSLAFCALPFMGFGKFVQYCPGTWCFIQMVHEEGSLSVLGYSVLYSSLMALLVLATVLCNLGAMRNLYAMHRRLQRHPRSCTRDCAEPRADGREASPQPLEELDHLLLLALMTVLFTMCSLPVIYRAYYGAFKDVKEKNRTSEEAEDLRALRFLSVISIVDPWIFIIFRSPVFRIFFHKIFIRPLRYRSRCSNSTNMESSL
Assay: FLIPR Ca2+ signaling PG antagonist assay, DP1 receptor stable cell line
Format: cell-based
Details: HEK-293 EBNA cells with chimeric Gqs, standard agonist BW 245C; read-out: DP (antagonist Kb)
metric: Kb (nM)

[
  {
    "compound": "CCC(C)(CC)COc1ccc(Br)cc1Cn1nc(C(=O)O)cc1C [Example 7]",
    "test target": "human recombinant prostanoid DP1 receptor (Homo sapiens, UniProt Q13258)",
    "reading": 150
  },
  {
    "compound": "Cc1cc(C(=O)O)nn1Cc1cc(Br)ccc1OCC1(C(F)(F)F)CCC1 [Example 9]",
    "test target": "human recombinant prostanoid DP1 receptor (Homo sapiens, UniProt Q13258)",
    "reading": 190
  },
  {
    "compound": "Cc1cc(C(=O)O)nn1Cc1cc(Br)ccc1OCC1CCC1 [Example 8]",
    "test target": "human recombinant prostanoid DP1 receptor (Homo sapiens, UniProt Q13258)",
    "reading": 130
  },
  {
    "compound": "Cc1cc(C(=O)O)nn1Cc1cc(Br)ccc1OCC1CCCC1 [Example 2]",
    "test target": "human recombinant prostanoid DP1 receptor (Homo sapiens, UniProt Q13258)",
    "reading": 400
  }
]

I = CCC(CC)COc1ccc(Br)cc1Cn1nc(C(=O)O)cc1C [Example 6]
II = Cc1cc(C(=O)O)nn1Cc1cc(C(F)(F)F)ccc1OCC1CCCC1 [Example 3]
Problem: In the pair I and II , the larger recorded Kb belongs to which? I would appreciate it if you answered with the label of your choice.
Result: II

====

Target: human recombinant prostanoid TP receptor (Homo sapiens, UniProt P21731)
Construct: expressed in transfected cells
Sequence (P21731 whole entry): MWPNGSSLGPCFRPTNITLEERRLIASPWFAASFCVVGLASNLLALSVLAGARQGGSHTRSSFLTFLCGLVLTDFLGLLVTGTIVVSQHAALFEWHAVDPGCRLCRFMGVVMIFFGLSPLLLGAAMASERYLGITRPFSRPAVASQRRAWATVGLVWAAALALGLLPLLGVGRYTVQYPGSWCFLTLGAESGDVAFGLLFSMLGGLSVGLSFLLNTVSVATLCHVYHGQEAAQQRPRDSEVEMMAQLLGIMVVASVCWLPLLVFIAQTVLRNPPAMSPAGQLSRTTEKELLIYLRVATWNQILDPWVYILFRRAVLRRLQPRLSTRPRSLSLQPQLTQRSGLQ
Test: FLIPR Ca2+ signaling PG antagonist assay, TP receptor stable cell line
Type: cell-based
Conditions: HEK-293 EBNA cells, standard agonist U-46619
Experimental: The above compounds were tested for PG antagonist activity as follows using human recombinant prostanoid receptor (DP1, EP1-4, FP, IP and TP) stable cell lines: […] Ca^2+ signaling studies were performed using a FLIPR TETRA system (Molecular Devices, Sunnyvale, Calif., USA) in the 384-format. […] Cells were excited with LED (light emitting diode) excitation at 470-495 nm and emission was measured through an emission filter at 515-575 nm. Assay plates were read for 3.5 minutes using the FLIPR^TETRA. […]
metric: Kb

Consider the worked cases shown below.
[
  {
    "smiles entry": "Cc1cc(C(=O)O)nn1Cc1cc(Br)ccc1OCC1CCCC1",
    "Kb": "< 1 nM"
  },
  {
    "smiles entry": "Cc1cc(C(=O)O)nn1Cc1cc(Cl)ccc1OCC1CCCC1",
    "Kb": "< 1 nM"
  }
]

Let us move to another entry and its Kb.
Problem: For the compound `CCC(CC)COc1ccc(Br)cc1Cn1nc(C(=O)O)cc1C` , what Kb is on record?
Result: < 1 nM

====

Target: human recombinant prostanoid IP receptor (Homo sapiens)
Construct: expressed in transfected cells
Sequence (P43119 whole entry): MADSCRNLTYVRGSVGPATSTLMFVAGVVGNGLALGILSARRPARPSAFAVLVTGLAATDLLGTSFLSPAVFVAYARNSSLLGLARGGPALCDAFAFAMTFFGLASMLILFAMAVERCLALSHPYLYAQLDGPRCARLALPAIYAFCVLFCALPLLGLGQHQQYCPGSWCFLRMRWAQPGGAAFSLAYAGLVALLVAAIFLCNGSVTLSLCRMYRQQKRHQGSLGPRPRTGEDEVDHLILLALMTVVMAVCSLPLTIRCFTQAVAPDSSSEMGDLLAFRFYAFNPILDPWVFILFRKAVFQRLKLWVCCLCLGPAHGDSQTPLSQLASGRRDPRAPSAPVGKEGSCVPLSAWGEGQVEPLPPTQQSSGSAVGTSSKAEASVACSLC
Assay: FLIPR Ca2+ signaling PG antagonist assay, IP receptor stable cell line
Type: cell-based
Conditions: HEK-293 EBNA cells, standard agonist Cicaprost
metric: Kb (µM)

[
  {
    "smiles entry": "Cc1cc(C(=O)O)nn1Cc1cc(Br)ccc1OCC1CCC1",
    "test target": "human recombinant prostanoid IP receptor (Homo sapiens)",
    "reading": 5.6
  },
  {
    "smiles entry": "CCC(C)(CC)COc1ccc(Br)cc1Cn1nc(C(=O)O)cc1C",
    "test target": "human recombinant prostanoid IP receptor (Homo sapiens)",
    "reading": 1.7
  }
]

a = CCC(CC)COc1ccc(Br)cc1Cn1nc(C(=O)O)cc1C
b = Cc1cc(C(=O)NS(=O)(=O)c2ccccc2)nn1Cc1cc(Cl)ccc1OCc1ccc(Cl)cc1
c = Cc1cc(C(=O)O)nn1Cc1cc(C(F)(F)F)ccc1OCC1CCCC1
Problem: Please rank these molecules by Kb in descending order. List the labels in the requested order.
Result: c, b, a
